Reported kon by item:
- Target or system: T1, human BR3 extracellular domain (human, UniProt Q96RJ3 1-61)
- T1 construct: biotinylated where used as tracer; also called hBR3-ECD; BR3-ECD
- Test details: SPR, BR3 ECD on chip;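 note: Anti-BR3 antibodies passed over the chip at high flow in PBS with 0.05% polysorbate 20, on and off rates fitted together globally to a 1:1 binding model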
Form entry: value (M⁻¹ s⁻¹) — number only.

Please review the entries below; each comes with its answer.
1) Hu2.1-30 IgG (antibody, V domains shown, humanized IgG; also called h2.1-30) VH: EVQLVESGGGLVQPGGSLRLSCAASGDSITRGYWNWVRQAPGKGLEWVGYINYSGTTYYNPSLKSRFTISRDTSKNTFYLQMNSLRAEDTAVYYCANLNYYGAMDYWGQGTLVTVSS VL: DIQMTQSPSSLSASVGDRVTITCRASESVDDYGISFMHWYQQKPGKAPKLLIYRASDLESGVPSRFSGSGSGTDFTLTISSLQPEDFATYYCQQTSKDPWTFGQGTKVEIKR; 2.41e+06
2) Hu11G9-46 IgG (antibody, V domains shown, humanized IgG) VH: EVQLVESGGGLVQPGGSLRLSCAASGDSITSGYWNWVRQAPGKGLEWVGYISYSGSTYYNPSLKSRFTISRDTSKNTFYLQMNSLRAEDTAVYYCAGLNDLYLYFDVWGQGTLVTVSS VL: DIQMTQSPSSLSASVGDRVTITCRSSQSLVHSNGNTYLHWYQQKPGKAPKLLIYKVSNRFSGVPSRFSGSGSGTDFTLTISSLQPEDFATYYCSQSTHVPPFTFGQGTKVEIKR; 1.66e+06

Kindly review the next binder as well.
Would you mind telling me what kon value was observed for chimeric 11G9 IgG (antibody, V domains shown, also called Ch 11G9 IgG) VH: DVQLQESGPSLVKPSQTLSLTCSVTGDSITSGYWNWIRKFPGNKLEYMGYISYSGSTYYNPSLKSRISITRDTSKNQFYLQLLSVTTEDTATYYCAGLDGLYWYFDVWGAGTLVTVSS VL: DIVMTQTPLSLPVSLGDQASISCRSSQSLVHSNGNTYLHWYLQKPGQSPKLLIYKVSNRFSGVPDRFSGSGSGTDFTLKISRVEAEDLGVYFCSQSTHVPPFTFGSGT ?
1.64e+06

Source of measurements: patent US20100280227A1
